Biological target: human Yes1 enzyme (Homo sapiens, UniProt P07947)
Construct: made in house
Sequence (P07947 whole entry): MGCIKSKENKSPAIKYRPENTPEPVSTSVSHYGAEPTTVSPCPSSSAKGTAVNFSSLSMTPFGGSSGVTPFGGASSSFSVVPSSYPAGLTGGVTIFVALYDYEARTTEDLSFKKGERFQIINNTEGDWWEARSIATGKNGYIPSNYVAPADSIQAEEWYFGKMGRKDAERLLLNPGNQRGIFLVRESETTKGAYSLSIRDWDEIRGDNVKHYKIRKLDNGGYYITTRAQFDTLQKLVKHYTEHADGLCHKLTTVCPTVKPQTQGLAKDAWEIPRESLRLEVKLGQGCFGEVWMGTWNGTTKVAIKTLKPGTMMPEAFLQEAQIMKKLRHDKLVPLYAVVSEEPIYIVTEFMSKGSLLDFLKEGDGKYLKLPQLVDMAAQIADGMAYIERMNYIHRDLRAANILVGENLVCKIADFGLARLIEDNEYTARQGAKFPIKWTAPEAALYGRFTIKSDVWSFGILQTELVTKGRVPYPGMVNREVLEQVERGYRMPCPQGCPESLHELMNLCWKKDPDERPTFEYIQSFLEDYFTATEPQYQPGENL
Experiment: Yes1 enzyme inhibitory activity (time-resolved fluorometry, biotinylated peptide phosphorylation)
Assay type: biochemical
Conditions: read-out: YES_IC50
Consider the following compounds and their measured pIC50 readings.
Please express pIC50 as -log10 of the molar concentration.

Cc1cc(Oc2ccccc2F)ncc1-n1ncc(C(=O)c2cc3cc(C4CC4)c(NS(=O)(=O)C4CCOCC4)cc3[nH]2)c1N [Example 5-1-396] yielded pIC50 of 8.44

Noted for Cc1cc(Oc2ccccc2F)ccc1-n1ncc(C(=O)c2cc3cc(N4CCOCC4)c(N4CCCC4=O)cc3[nH]2)c1N [Example 5-1-105] : its pIC50 reads 9.11

For Cc1cc(Oc2c(F)cccc2F)ncc1-n1ncc(C(=O)c2cc3cc(OCC(F)F)c(NS(=O)(=O)Cc4ccccc4)cc3[nH]2)c1N [Example 5-1-296] the compound record lists pIC50 as 8.23
